# Tested on: MX-1 breast xenograft, nude mice, tumor weight T/C
# method.description: NCI In Vivo Anticancer Drug Screen. Data for tumor model Human Mammary Carcinoma MX-1 Xenograft (intrarenal inoculation) in NU/NU Swiss (nude) mice
# condition.description: endpoint: mean tumor weight change; dose: 100.0 mg/kg/injection; schedule: Q01DX010 (sc); vehicle: Klucel (hydroxypropylcellulose) (HPC); higher = larger tumour
Records with an inconclusive call do not appear.

[
  {
    "compound": "CC(=O)OCc1cc(=O)n(C)c2c3c4c(cc12)c(C)cc(=O)n4CO3",
    "system": "MX-1 breast xenograft, nude mice, tumor weight T/C",
    "T/C": "92 % of control"
  },
  {
    "compound": "CC1CN=C(c2ccc(NC(=O)c3ccc(C(=O)Nc4ccc(C5=NCC(C)N5)cc4)cc3)cc2)N1 (stereo not given)",
    "system": "MX-1 breast xenograft, nude mice, tumor weight T/C",
    "T/C": "96 % of control"
  },
  {
    "compound": "CCCCCC[C@H]([C@H](C)O)n1cnc2c(N)ncnc21",
    "system": "MX-1 breast xenograft, nude mice, tumor weight T/C",
    "T/C": "116 % of control"
  },
  {
    "compound": "CCCC(=O)OCc1cc(=O)n(C)c2c3c4c(cc12)c(C)cc(=O)n4CO3",
    "system": "MX-1 breast xenograft, nude mice, tumor weight T/C",
    "T/C": "15 % of control"
  },
  {
    "compound": "CNc1nc(NC)nc(NC)n1",
    "system": "MX-1 breast xenograft, nude mice, tumor weight T/C",
    "T/C": "93 % of control"
  },
  {
    "compound": "CCCCc1ccc(-n2c(C)c(COC(=O)NC)c(COC(=O)NC)c2C)cc1",
    "system": "MX-1 breast xenograft, nude mice, tumor weight T/C",
    "T/C": "77 % of control"
  },
  {
    "compound": "Cc1ccc2c(ccc(CC(=S)[S-])[n+]2C)c1",
    "system": "MX-1 breast xenograft, nude mice, tumor weight T/C",
    "T/C": "80 % of control"
  },
  {
    "compound": "Nc1nc(=S)c2ncn(C3CC(O)C(CO)O3)c2[nH]1 (stereo not given)",
    "system": "MX-1 breast xenograft, nude mice, tumor weight T/C",
    "T/C": "122 % of control"
  },
  {
    "compound": "CC/C(=C(\\c1ccccc1)c1ccc(OCCN(C)C)cc1)c1ccccc1",
    "system": "MX-1 breast xenograft, nude mice, tumor weight T/C",
    "T/C": "83 % of control"
  },
  {
    "compound": "C[C@]12C=CC(=O)C=C1CC[C@@H]1[C@@H]2[C@@H](O)C[C@@]2(C)[C@H]1CC[C@]2(O)C(=O)CO",
    "system": "MX-1 breast xenograft, nude mice, tumor weight T/C",
    "T/C": "24 % of control"
  }
]

* * *

# System: MX-1 breast xenograft, nude mice, tumor weight T/C
# method.description: NCI In Vivo Anticancer Drug Screen. Data for tumor model Human Mammary Carcinoma MX-1 Xenograft (intrarenal inoculation) in NU/NU Swiss (nude) mice
# condition.description: endpoint: mean tumor weight change; dose: 25.0 mg/kg/injection; schedule: Q04DX003 (sc); vehicle: water; higher = larger tumour
Results filed as inconclusive are left out.
readout.type: T/C

[
  {
    "smiles.notation": "C1CC[N-]CC1.[Cl][Pt+2][Cl].[NH-]C1CC1",
    "readout.type": "T/C",
    "result": "60 % of control"
  },
  {
    "smiles.notation": "CNc1nc(N(C)C)nc(N(C)C)n1",
    "readout.type": "T/C",
    "result": "60 % of control"
  },
  {
    "smiles.notation": "Nc1n[n+](-c2ccc(Cl)cc2)no1",
    "readout.type": "T/C",
    "result": "93 % of control"
  },
  {
    "smiles.notation": "NC(=O)/C=C/c1c[nH]c2nccnc12",
    "readout.type": "T/C",
    "result": "98 % of control"
  }
]

* * *

# Test system: MX-1 breast xenograft, nude mice, tumor weight T/C
# method.description: NCI In Vivo Anticancer Drug Screen. Data for tumor model Human Mammary Carcinoma MX-1 Xenograft (intrarenal inoculation) in NU/NU Swiss (nude) mice
# condition.description: endpoint: mean tumor weight change; dose: 150.0 mg/kg/injection; schedule: Q04DX003 (sc); vehicle: Klucel (hydroxypropylcellulose) (HPC); higher = larger tumour
# Experimental: The antitumor activity of compounds was measured in mice bearing transplantable tumors. Survival or tumor size were measured and the results are expressed as the measurement made in the treated group (T) divided by the measurement made in the vehicle treated control group (C). The tumor model used in this assay is Human Mammary Carcinoma MX-1 Xenograft (intrarenal inoculation) in NU/NU Swiss (nude) mice
Inconclusive results are not listed.

[
  {
    "molecule": "O=S(=O)(O)O",
    "T/C": "94 % of control"
  },
  {
    "molecule": "C[C@]12CCC(=O)C=C1CC[C@@H]1[C@@H]2[C@@H](O)C[C@@]2(C)[C@H]1CC[C@]2(O)C(=O)CO",
    "T/C": "45 % of control"
  },
  {
    "molecule": "COC(=O)Nc1nc2ccc(SC)cc2c(=O)[nH]1",
    "T/C": "83 % of control"
  },
  {
    "molecule": "C=C(c1ccc(OC)c(OC)c1)c1nccc2cc(OC)c(OC)cc12",
    "T/C": "91 % of control"
  },
  {
    "molecule": "Nc1ncnc2c(C3OC(CO)C(O)C3O)[nH]nc12 (stereo unspecified)",
    "T/C": "-100 % of control"
  },
  {
    "molecule": "Cn1cc(C2NC(=O)c3ccccc3N2)c2ccccc21 (stereo unspecified)",
    "T/C": "113 % of control"
  },
  {
    "molecule": "COC1=CC(=O)N(C(=O)C2CSC(C(CO)NC(=O)c3csc(/C=N/O)n3)=N2)C1 (stereo unspecified)",
    "T/C": "79 % of control"
  },
  {
    "molecule": "O=S1(=O)CS(=O)(=O)OCCO1",
    "T/C": "7 % of control"
  },
  {
    "molecule": "CC1=CC(=Nc2ccc(N(CCCl)CCCl)cc2)C=C(C)C1=O",
    "T/C": "34 % of control"
  },
  {
    "molecule": "CN1CCc2c(c3ccccc3c3ccccc23)C1",
    "T/C": "30 % of control"
  },
  {
    "molecule": "Cn1/c2cc/c1=C(\\c1ccc(S(=O)(=O)O)cc1)c1ccc([n-]1)/C(c1ccc(S(=O)(=O)O)cc1)=c1/cc/c([nH]1)=C(\\c1ccc(S(=O)(=O)O)cc1)c1ccc([n-]1)/C=2c1ccc(S(=O)(=O)O)cc1.O.O=S(=O)(O)C(F)(F)F.[Cu+2]",
    "T/C": "54 % of control"
  }
]

* * *

# Test system: MX-1 breast xenograft, nude mice, tumor weight T/C
# method.description: NCI In Vivo Anticancer Drug Screen. Data for tumor model Human Mammary Carcinoma MX-1 Xenograft (intrarenal inoculation) in NU/NU Swiss (nude) mice
# condition.description: endpoint: mean tumor weight change; dose: 300.0 mg/kg/injection; schedule: Q04DX003 (sc); vehicle: saline with Tween-80; higher = larger tumour
Results filed as inconclusive are left out.

[
  {
    "compound": "Nc1nc(-c2ccccc2)c(Br)c(=O)[nH]1",
    "T/C": "96 % of control"
  },
  {
    "compound": "COC(=O)Nc1ccc(Cc2ccc(NC(=O)OC)cc2)cc1",
    "T/C": "87 % of control"
  },
  {
    "compound": "O=Cc1c(O)c2ccccc2[nH]c1=O",
    "T/C": "99 % of control"
  },
  {
    "compound": "CC(=O)Nc1ccc(O)c(O)c1",
    "T/C": "75 % of control"
  },
  {
    "compound": "C[C@H](CCC[C@H](C)OS(=O)(=O)c1ccccc1)OS(=O)(=O)c1ccccc1",
    "T/C": "92 % of control"
  },
  {
    "compound": "COc1cc(Cl)ccc1C",
    "T/C": "108 % of control"
  },
  {
    "compound": "O=C(Nc1nncs1)c1cccs1",
    "T/C": "98 % of control"
  },
  {
    "compound": "CC1(C)CC2(C)OC2C2(C1)N=NC(=Nc1ccccc1)O2 (configuration not stated)",
    "T/C": "79 % of control"
  },
  {
    "compound": "CCC(C(=O)O)C(=O)O.[NH-]CC1CCCC[N-]1.[Pt+2]",
    "T/C": "-98 % of control"
  },
  {
    "compound": "CCCCCCCC(=O)[O][Hg][CH2]C1COC([CH2][Hg][O]C(=O)CCCCCCC)CO1 (configuration not stated)",
    "T/C": "58 % of control"
  },
  {
    "compound": "CC1(c2ccc(Cl)cc2)OC(=O)C(=Cc2ccc([N+](=O)[O-])s2)C(=O)O1 (configuration not stated)",
    "T/C": "122 % of control"
  },
  {
    "compound": "COCCCNC1=C(C#N)C(=O)NC(c2cccc([N+](=O)[O-])c2)S1 (configuration not stated)",
    "T/C": "96 % of control"
  }
]
